target: NAMPT (human, recombinant, C-terminally His-tagged) (Homo sapiens, UniProt P43490); test: Time-Resolved Fluorescence Resonance Energy Transfer (TR-FRET) Binding Assay of NAMPT; conditions: absence of substrates; 6.8 nM NAMPT, 200 nM probe, equilibrated 3 hours
Sequence (P43490 whole entry): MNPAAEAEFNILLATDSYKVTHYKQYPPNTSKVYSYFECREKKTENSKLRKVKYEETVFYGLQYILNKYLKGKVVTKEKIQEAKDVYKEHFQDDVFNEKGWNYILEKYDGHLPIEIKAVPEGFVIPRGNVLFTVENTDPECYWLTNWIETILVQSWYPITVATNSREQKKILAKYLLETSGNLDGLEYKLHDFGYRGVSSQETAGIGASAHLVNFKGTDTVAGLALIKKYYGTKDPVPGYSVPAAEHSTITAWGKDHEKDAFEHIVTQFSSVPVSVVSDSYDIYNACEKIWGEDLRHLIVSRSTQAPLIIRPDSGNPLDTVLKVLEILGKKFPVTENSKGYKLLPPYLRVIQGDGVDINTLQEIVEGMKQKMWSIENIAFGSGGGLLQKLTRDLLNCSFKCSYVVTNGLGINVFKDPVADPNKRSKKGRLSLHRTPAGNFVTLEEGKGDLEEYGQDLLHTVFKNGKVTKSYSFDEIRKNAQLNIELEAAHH
pIC50: −log10 of the molar value.
recorded_endpoint: pIC50

compound=Cc1nccn1CCCNC(=O)c1cnc(N(Cc2ccc(F)cc2)C(=O)CC(C)C)s1 recorded_endpoint=pIC50 observed=5.60

(A) CC(C)CCN(C(=O)COc1ccccc1)c1ncc(C(=O)NCCCn2ccnc2)s1
(B) O=C(NCCCn1ccnc1)c1cnc(N(Cc2ccc(F)cc2)C(=O)NCC2CCCCO2)s1 (centres unmarked)
(C) CC(C)N1CCN(CCN(Cc2ccc(F)cc2)c2ncc(C(=O)NCCCn3ccnc3)s2)CC1
// query Form: Sort by [pIC50] Order [ ascending ] Provide the ranking by listing each label in its place in the requested order.
// result B, C, A
